Biological target: T1, human CD8 alpha (CD8A) on primary human CD8+ T cells (human, UniProt P01732 22-235)
T1 construct: whole, on cells; also called hCD8A
T1 sequence (P01732 22-235): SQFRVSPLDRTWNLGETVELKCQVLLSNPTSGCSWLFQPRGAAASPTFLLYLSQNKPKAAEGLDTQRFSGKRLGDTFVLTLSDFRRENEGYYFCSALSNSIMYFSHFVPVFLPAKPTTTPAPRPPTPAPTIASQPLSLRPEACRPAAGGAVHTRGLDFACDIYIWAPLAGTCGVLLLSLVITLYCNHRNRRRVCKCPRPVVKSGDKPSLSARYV
Experiment: flow cytometry, human CD8+ T cells, 2 uM FN3
Quantity: Human T-cell Binding 2 uM (MFI)
The answer is to be given in MFI; state only the numeric part.

Query (binder): P283AR9P1362_C7 (designed binder, FN3 domain) LPAPKNLVVSRVTEDSARLSWVKRATSFDSFLIQYQESEKVGEAIVLTVPGSERSYDLTGLKPGTEYTVSIYGVDVRYNEGQPIWSNPLSAIFTT ; field requested: Human T-cell Binding 2 uM (MFI)
11000

Query (binder): P282DR9P1359_F2 (designed binder, FN3 domain) LPAPKNLVVSRVTEDSARLSWTAPDAAFDSFNIAYPEALHPGYGEAIVLTVPGSERSYDLTGLKPGTEYWVIIGGVKGGQKSWPLSAIFTTGGHHHDHH ; field requested: Human T-cell Binding 2 uM (MFI)
18400

Query (binder): P283BR9P1363_D11 (designed binder, FN3 domain) LPAPKNLVVSRVTEDSARLSWNKKHDGQPTFDSFLIQYQESEKVGEAIVLTVPGSERSYDLTGLKPGTEYTVSIYGVDVVYEGSYPASSNPLSAIFTT ; field requested: Human T-cell Binding 2 uM (MFI)
8690

Query (binder): P282ER9P1360_C8 (designed binder, FN3 domain) LPAPKNLVVSRVTEDSARLSWTAPDAAFDSFGILYYEPVDSGEAITLPVPGSERSYDLTGLKPGTEYWVVITGVKGGAPSTPLGTIFTT ; field requested: Human T-cell Binding 2 uM (MFI)
30600

Query (binder): P282DR9P1359_E6 (designed binder, FN3 domain) LPAPKNLVVSRVTEDSARLSWTAPDAAFDSFWIAYPEWPVQGEAIVLTVPGSERSYDLTGLKPGTEYFVVIQGVKGGTPSWPLSAIFTT ; field requested: Human T-cell Binding 2 uM (MFI)
20500

Query (binder): P283AR9P1362_F2 (designed binder, FN3 domain) LPAPKNLVVSRVTEDSARLSWRKKDHPFDSFLIQYQESEKVGEAIVLTVPGSERSYDLTGLKPGTEYTVSIYGVDVKYDIDSRPISSNPLSAIFTT ; field requested: Human T-cell Binding 2 uM (MFI)
9620

Query (binder): P282FR9P1361_E12 (designed binder, FN3 domain) LPAPKNLVVSRVTEDSARLSWTAPDAAFDSLGITYWESPYAGEAIVLTVPGSERSYDLTGLKPGTEYGVFILGVKGGYPSAPLSAIFTT ; field requested: Human T-cell Binding 2 uM (MFI)
15800

Query (binder): P282DR9P1359_A12 (designed binder, FN3 domain) LPAPKNLVVSRVTEDSARLSWTAPEAAFDSFQIAYPEWPPPREAIVLTVPGSERSYDLTGLKPGTEYFVVIQGVKGGEISWPLSAIFTT ; field requested: Human T-cell Binding 2 uM (MFI)
32200

Query (binder): P282ER9P1360_H10 (designed binder, FN3 domain) LPAPKNLVVSRVTEDSARLSWTAPDAAFDSFEIYYPEWPFAGEAIGLPVPGSERSYDLTGLKPGTEYFVVIYGVKGGELSEPLTAQFTT ; field requested: Human T-cell Binding 2 uM (MFI)
2510

Query (binder): P282DR9P1359_F5 (designed binder, FN3 domain) LPAPKNLVVSRVTEDSARLSWTAPDAAFDSFQIAYPEWPPPGEAIVLTVPGSERSYDLTGLKPGTEYFVIIQGVKGGVESWPLSAIFTT ; field requested: Human T-cell Binding 2 uM (MFI)
48900

Query (binder): P283AR9P1362_D6 (designed binder, FN3 domain) LPAPKNLVVSRVTEDSARLSWAKRPGAFDSFLIQYQESEKVGEAIVLTVPGSERSYDLTGLKPGTEYTVSIYGVDVKYDIDSRPISSNPLSAIFTT ; field requested: Human T-cell Binding 2 uM (MFI)
13700

Query (binder): P282BR9P1357_E5 (designed binder, FN3 domain) LPAPKNLVVSRVTEDSARLSWWPRKYQRPFDSFLIQYQESEKVGEAIVLTVPGSERSYDLTGLKPGTEYTVSIYGVDIEWIGNRPIASNPLSAIFTT ; field requested: Human T-cell Binding 2 uM (MFI)
6730

Query (binder): P282DR9P1359_E8 (designed binder, FN3 domain) LPAPKNLVVSRVTEDSARLSWTAPDAAFDSFQIAYPEWPVIGEAIVLTVPGSERSYDLTGLKPGTEYWVIIQGVKGGYTSWPLSAIFTT ; field requested: Human T-cell Binding 2 uM (MFI)
26100

Query (binder): P282BR9P1357_C4 (designed binder, FN3 domain) LPAPNNLVVSRVTEDSARLSWPFVSQNKPHFDSFLIQYQESEKVGEAIVLTVPGSERSYDLTGLKPGTEYTVSIYGVDVKWEGNRPVASNPLSAIFTT ; field requested: Human T-cell Binding 2 uM (MFI)
16800

Query (binder): P282DR9P1359_A8 (designed binder, FN3 domain) LPAPKNLVVSRVTEDSARLSWTAPDAAFDSFRIAYPEWPVQGEAIVLTVPGSERSYDLTGLKPGTEYFVIIYGVKGGELSPPLSAIFTT ; field requested: Human T-cell Binding 2 uM (MFI)
21100

Query (binder): P282AR9P1356_B9 (designed binder, FN3 domain) LPAPKNLVVSRVTEDSARLSWPEGDRPFFDSFLIQYQESEKVGEAIVLTVPGSERSYDLTGLKPGTEYTVSIYGVDVKWEGNRPVASNPLSAIFTT ; field requested: Human T-cell Binding 2 uM (MFI)
17200

Query (binder): P283BR9P1363_C8 (designed binder, FN3 domain) LPAPKNLVVSRVTEDSARLSWAKTSDLHPLFDSFLIQYQESEKVGEAIVLTVPGSERSYDLTGLKPGTEYTVSIYGVDVKWEGNRPVASNPLSAIFTT ; field requested: Human T-cell Binding 2 uM (MFI)
16500
